assay info: Restrictive medium S. cerevisiae growth inhibition, OD615, pilot screen of yeast lifespan reduction project, restrictive growth control (AID 706);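 also: modified DeaD lifespan yeast strain shifted to restrictive glucose medium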
measurement context: OD615, 48 h, at 10 µM, active compounds read high
Can you tell me growth inhibition for the items I'm about to list?
Give bare numbers, in %.

The examples below pair each entry with its known result.
compound	growth inhibition / %
Cc1cccc(C)c1Nc1nc2ccccc2o1	11.5
O=C(NCc1cn2ccsc2n1)c1cccs1	2.67
CCOC(=O)c1c(C2CCN(C(=O)OCC)CC2)nc2ccccn12	-12.6

Give growth inhibition for all compounds that follow.
1. O=C(NCCCN1CCN(c2ccccc2F)CC1)C1CCC(=O)N1C1CCCC1 (centres undefined)
2. c1ccc(N2CCN(c3ncnc4c3oc3ccccc34)CC2)cc1
3. CNC(=O)c1sc2nc(-c3ccc(OC)cc3)cn2c1C
4. CCn1c(N)nc2c1c(=O)n(C)c(=O)n2C
5. Cc1ccc(S(=O)(=O)N=C2SCCCS2)cc1
6. COc1ccc(-n2nnc3c(=O)n(CC(=O)N4CCCCC4)cnc32)cc1

1: -1.25; 2: 9.12; 3: 2.45; 4: -1.29; 5: 6.67; 6: 4.3
